- System: T1, human GFRAL (analyte in Biacore assays) (human, UniProt Q6UXV0 19-351, limits assumed)
- T1 construct: injected in solution over captured antibody; also called hGFRAL
- T1 sequence: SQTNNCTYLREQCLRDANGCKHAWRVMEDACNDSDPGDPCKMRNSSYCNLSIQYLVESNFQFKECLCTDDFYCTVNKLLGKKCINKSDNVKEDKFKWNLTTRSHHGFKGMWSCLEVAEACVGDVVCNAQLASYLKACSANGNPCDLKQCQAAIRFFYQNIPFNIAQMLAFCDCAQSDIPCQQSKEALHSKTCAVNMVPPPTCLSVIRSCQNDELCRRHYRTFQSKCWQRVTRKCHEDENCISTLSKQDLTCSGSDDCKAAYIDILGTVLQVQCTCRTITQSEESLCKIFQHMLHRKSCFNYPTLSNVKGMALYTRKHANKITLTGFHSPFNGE
- Assay protocol: Biacore SPR, antibody captured, GFRAL injected
Catalogue of koff readings, one per entry.
Readout: koff (s⁻¹)

>>> quantitative_readout("antibody designated 19K19 (antibody, V domains shown, mouse hybridoma monoclonal) VH: QVQLQQSGPDLVKPGASVKISCKASGYAFTSYWMNWVKQRPGKGLEWIGRIYPGDGDTNYNGKFKGKATLTADKSSSTAYMQLSSLTSEDSAVYFCARAYLLRLRRTGYYAMDYWGQGTSVTVSS VL: DVVLTQTPLSLPVNIGDQASISCKSTKSLLNSDEFTYLDWYLQKPGQSPQLLIYLVSNRFSGVPDRFSGSGSGTDFTLKISRVEAEDLGVYYCFQSNYLPYTFGGGTKLEIK")
0.000135
>>> quantitative_readout("antibody designated P1H8 (antibody, V domains shown, mouse hybridoma monoclonal) VH: EVQLQQSGPELVKPGASVKISCKASGYTFTDYYMNWVKQSHGKSLEWIGDINPNNGGTTYNQKFKGKATLTVDKSSSTAYMELRSLTSEDSAVYYCARQGPWYFDVWGTGTTVTVSS VL: DVLMTQTPLSLPVSLGDQASISCRSSQTIVHSNGYTYLEWYLQKPGQSPKLLIYKVSNRFSGVPDRFSGSGSGTDFTLKISRVEAEDLGVYYCFQGSHVPWTFGGGTKLEIK")
"8.99e-05"

Entry source: patent US20170306031A1
